Every entry's value here was drawn from the supplement of paper PMC10567573.

B1: RTN1 (parent)
chain: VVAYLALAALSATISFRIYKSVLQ

Variants of: B1
METHOD_SUMMARY: protein stability index of a GFP-peptide fusion (GPS, HEK-293T) (PSI 1-6); higher = more stable;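 also: lentivirally expressed fusions sorted by FACS into six bins by GFP to DsRed ratio, PSI derived from sequencing read proportions per bin multiplied by bin number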
RUN_PARAMETERS: c terminus: a fixed tail appended
PROPERTY_LABEL: protein stability index

input_sequence="VVAYLALATLSATISFRIYKSVLQ [A9T]" numeric_value=2.52
input_sequence="VKAYLALAALSATISFRIYKSVLQ [V2K]" numeric_value=4.51
input_sequence="VVAYLAQAALSATISFRIYKSVLQ [L7Q]" numeric_value=2.07
input_sequence="VVAYLWLAALSATISFRIYKSVLQ [A6W]" numeric_value=3.42
input_sequence="VVAYLALAAYSATISFRIYKSVLQ [L10Y]" numeric_value=2.83
input_sequence="VVAYLALAFLSATISFRIYKSVLQ [A9F]" numeric_value=2.86
input_sequence="VVAYLALAALSATISHRIYKSVLQ [F16H]" numeric_value=3.82
input_sequence="VVAYLALRALSATISFRIYKSVLQ [A8R]" numeric_value=2.18
input_sequence="VVPYLALAALSATISFRIYKSVLQ [A3P]" numeric_value=2.66
input_sequence="VVCYLALAALSATISFRIYKSVLQ [A3C]" numeric_value=3.67
input_sequence="VVAYLALAALSATISFRIAKSVLQ [Y19A]" numeric_value=2.51
input_sequence="VVAYLALEALSATISFRIYKSVLQ [A8E]" numeric_value=2.46
input_sequence="VVAYLALFALSATISFRIYKSVLQ [A8F]" numeric_value=1.68
input_sequence="VVAYLALAALSATISFRIYHSVLQ [K20H]" numeric_value=3.98
input_sequence="VVAYLALAALSATISFRIYKSVLV [Q24V]" numeric_value=3.35
input_sequence="VVVYLALAALSATISFRIYKSVLQ [A3V]" numeric_value=2.16
input_sequence="VVAYWALAALSATISFRIYKSVLQ [L5W]" numeric_value=3.59
input_sequence="VVAYLALAALSATISFRIYKSALQ [V22A]" numeric_value=3.36
input_sequence="VVAYLALAALSATISFRIYKSVLY [Q24Y]" numeric_value=3.94
input_sequence="VVAYLADAALSATISFRIYKSVLQ [L7D]" numeric_value=1.99
input_sequence="VVAYLALAALSATISFRPYKSVLQ [I18P]" numeric_value=3.69
input_sequence="VVAPLALAALSATISFRIYKSVLQ [Y4P]" numeric_value=1.75
input_sequence="VVAYLALAALSATIQFRIYKSVLQ [S15Q]" numeric_value=2.82
input_sequence="VVAYLALAALFATISFRIYKSVLQ [S11F]" numeric_value=2.3
input_sequence="VVAYLALAALSATESFRIYKSVLQ [I14E]" numeric_value=3.06
input_sequence="VVEYLALAALSATISFRIYKSVLQ [A3E]" numeric_value=3.04
input_sequence="VVAYLALAALSATISFRIYGSVLQ [K20G]" numeric_value=3.57
input_sequence="VVAYLALAALSATGSFRIYKSVLQ [I14G]" numeric_value=2.49
input_sequence="VVHYLALAALSATISFRIYKSVLQ [A3H]" numeric_value=2.2
input_sequence="VVAYLALAALSYTISFRIYKSVLQ [A12Y]" numeric_value=2.39
input_sequence="VVAYLAIAALSATISFRIYKSVLQ [L7I]" numeric_value=2.46
input_sequence="VVAYLALAALVATISFRIYKSVLQ [S11V]" numeric_value=1.41
input_sequence="VVAYLALAALSATISFRIYKEVLQ [S21E]" numeric_value=2.38
input_sequence="VVAYLALAALSATISFRIYKSWLQ [V22W]" numeric_value=4.26
input_sequence="VVAYLALAALSATISFRIWKSVLQ [Y19W]" numeric_value=1.49
input_sequence="VVAYLALAALSATIAFRIYKSVLQ [S15A]" numeric_value=1.01
input_sequence="VVAYLALAALSATISFRIPKSVLQ [Y19P]" numeric_value=2.41
input_sequence="VVAYLALADLSATISFRIYKSVLQ [A9D]" numeric_value=2.48
input_sequence="VVAYLALAALSATICFRIYKSVLQ [S15C]" numeric_value=2.23
input_sequence="VVAYLALAALSATISDRIYKSVLQ [F16D]" numeric_value=2.94
input_sequence="VVADLALAALSATISFRIYKSVLQ [Y4D]" numeric_value=2.35
input_sequence="VVAYLALAALSATISFRIYKQVLQ [S21Q]" numeric_value=2.56
input_sequence="VVAYLALAALSLTISFRIYKSVLQ [A12L]" numeric_value=3.9
input_sequence="VVAYLALAALSATISFRIYKSTLQ [V22T]" numeric_value=2.38
input_sequence="VVAYLALAALSATISFRVYKSVLQ [I18V]" numeric_value=4.01
input_sequence="VVAYLMLAALSATISFRIYKSVLQ [A6M]" numeric_value=3.4
input_sequence="VVAYLALAALSATISLRIYKSVLQ [F16L]" numeric_value=2.57
input_sequence="VVAYLALAALSATISFRIYKPVLQ [S21P]" numeric_value=1.65
input_sequence="VVAYLALAATSATISFRIYKSVLQ [L10T]" numeric_value=2.51
input_sequence="VVAYLASAALSATISFRIYKSVLQ [L7S]" numeric_value=2.63
input_sequence="VVAYIALAALSATISFRIYKSVLQ [L5I]" numeric_value=2.01
input_sequence="VVAYLALAALSATISFRIYKSVLN [Q24N]" numeric_value=3.38
